ASSAYED SYSTEM: full-length glucocorticoid (GR) protein (Homo sapiens, UniProt P04150)
Construct: purchased Invitrogen
Sequence (P04150 1-777): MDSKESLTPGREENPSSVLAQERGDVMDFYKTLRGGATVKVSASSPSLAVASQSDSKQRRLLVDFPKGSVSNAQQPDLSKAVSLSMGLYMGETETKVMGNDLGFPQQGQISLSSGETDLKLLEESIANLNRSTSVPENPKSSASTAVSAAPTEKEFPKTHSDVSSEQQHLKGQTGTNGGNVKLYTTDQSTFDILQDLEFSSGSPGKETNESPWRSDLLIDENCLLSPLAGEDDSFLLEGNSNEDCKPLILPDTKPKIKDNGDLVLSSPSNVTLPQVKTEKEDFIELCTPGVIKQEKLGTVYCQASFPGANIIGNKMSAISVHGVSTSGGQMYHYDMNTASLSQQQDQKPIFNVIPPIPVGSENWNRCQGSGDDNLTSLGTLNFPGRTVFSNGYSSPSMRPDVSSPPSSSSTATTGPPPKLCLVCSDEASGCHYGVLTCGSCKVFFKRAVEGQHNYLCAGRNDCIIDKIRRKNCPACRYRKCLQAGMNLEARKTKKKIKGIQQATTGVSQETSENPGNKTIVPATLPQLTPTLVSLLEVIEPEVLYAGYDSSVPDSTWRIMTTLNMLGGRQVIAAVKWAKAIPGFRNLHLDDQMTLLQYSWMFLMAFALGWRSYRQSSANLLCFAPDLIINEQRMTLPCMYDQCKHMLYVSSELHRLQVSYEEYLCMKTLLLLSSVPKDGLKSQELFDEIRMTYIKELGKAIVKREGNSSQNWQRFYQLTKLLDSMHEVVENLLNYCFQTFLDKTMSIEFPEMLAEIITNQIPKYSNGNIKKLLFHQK
TEST METHOD NOTES: Glucocorticoid receptor fluorescence polarization ligand binding (GRFP) assay
pIC50: −log10 of the molar value. Counter-ions that a name gives are not always drawn.
PROPERTY: pIC50

1) Cc1ccncc1NC(=O)c1ccc2c(c1)CC[C@@H]1C[C@@](O)(C(F)(F)F)CC[C@@]21Cc1ccccc1; 8.69
2) Cc1cnc(NC(=O)c2ccc3c(c2)CC[C@@H]2C[C@@](O)(C(F)(F)F)CC[C@@]32Cc2ccccc2)c(C)n1; 9.46
3) Cc1ncccc1NC(=O)c1ccc2c(c1)CC[C@@H]1C[C@@](OP(=O)(O)O)(C(F)(F)F)CC[C@@]21Cc1ccccc1; 7.10
4) Cc1ncccc1CNC(=O)c1ccc2c(c1)CC[C@@H]1C[C@@](O)(CCC(F)(F)F)CC[C@@]21Cc1ccccc1; 8.15
5) Cc1ncc(NC(=O)c2ccc3c(c2)CC[C@@H]2C[C@@](O)(CCC(F)(F)F)CC[C@@]32Cc2ccccc2)c(C)n1; 8.34
6) Cc1ncccc1NC(=O)c1ccc2c(c1)CC[C@@H]1C[C@@](O)(CCC(F)(F)F)CC[C@@]21Cc1ccccc1; 8.91
7) Cc1ncccc1NC(=O)c1ccc2c(c1)CC[C@@H]1C[C@@](OC(=O)OCC(C)C)(C(F)(F)F)CC[C@@]21Cc1ccccc1; 6.05
8) Cc1ncccc1NC(=O)c1ccc2c(c1)[C@H](O)C[C@@H]1C[C@@](O)(C(F)(F)F)CC[C@@]21Cc1ccccc1; 8.72
9) Cc1ncccc1NC(=O)c1ccc2c(c1)C(=O)C[C@@H]1C[C@@](O)(C(F)(F)F)CC[C@@]21Cc1ccccc1; 8.93
10) Cc1ncccc1NC(=O)c1ccc2c(c1)CC[C@@H]1C[C@@](O)(C(F)(F)F)CC[C@@]21Cc1ccccc1 [Example 1 HCL salt]; 8.88
11) Cc1ncccc1NC(=O)c1ccc2c(c1)CC[C@@H]1C[C@@](O)(C(F)F)CC[C@@]21Cc1ccccc1; 8.10
12) Cc1ncccc1NC(=O)c1ccc2c(c1)C=C[C@@H]1C[C@@](O)(C(F)(F)F)CC[C@@]21Cc1ccccc1; 8.04
